Target: T1, JCV VP1 mutant S269F (John Cunningham virus (JCV), UniProt P03089 1-354)
T1 construct: also called VP1 S269F; 269m VP1
Test: ELISA, plates coated with pseudovirus, purified antibody
endpoint-name: AB conc. (lowest concentration of antibody that gave a clear signal above background)

The binder listed as 3D2 (antibody, V domains shown) VH: QVQLQQWGAGLLKPSETLSLTCAVFGGSFSSYYWSWIRHPPGKGLEWIGDINHSGSTNYNPSLKSRVTLSVDTSKNQFSLKVTSVTAADTAVYYCARWGIAADYGMDVWGQGTTVTVSS VL: EIVLTQSPGTLSLSPGERATLSCRASQSVSSSYLAWYQQKPGQAPRLLIYGASSRATGIPDRFSDSGSGTDFTLTISRLEPEDFALYYCQQYGTSPWTFGQGTKVEIK shows AB conc. (lowest concentration of antibody that gave a clear signal above background) equal to < 22 ng/mL

Lab note: 2A6 (antibody, V domains shown) VH: QVQLQQWGAGLLKPSETLSLTCAVYGGSFSGYYWSWIRQPPGKGLEWIGDINHGGSTNYNPSLKSRVIISVDTSKNQFSLKLSSVTAADTALYYCARGWGGQVAHWFDPWGQGTLGTVSS VL: DIVMTQSPDSLALSLGERATINCKSSQSVLFSSNNQNYLAWYQQKPGQPPKLLIYWASTRESGVPDRFSGSGSGTDFTLTVSSLQAEDVAVYFCQQYYSLPYTFGQGTKLEIK gave AB conc. (lowest concentration of antibody that gave a clear signal above background) of < 22 ng/mL

response.value for 1H10 (antibody, V domains shown) VH: EVQLLESGGGLVQPGGSLRLSCAASGFTLSTYAMSWVRQAPGKGLEWVSAISGTGLSTYYADSLKGRFTISRDISKNTLYLQMSSLKAEDTAVYYCAKGLELFYFYYGMDVWGQGTTVTVSS VL: EIVLTQSPGTLSLSPGERATLSCRASQSVSSTYLAWYQQKPGQAPRLLIYGTSSRATGIPDRFSGSGSGTDFTLTISRLEPEDLAVYYCQQYGRSLIFGQGTRLEIK (field: AB conc. (lowest concentration of antibody that gave a clear signal above background)) = < 7.4 ng/mL

Record 1A7 (antibody, V domains shown) VH: QVQLVQSGAEVKKPGASVKVSCKASGYTFTFYDINWVRQATGQGLEWMGWMNPNSGNTGYAQNFQGRVTMTRNTSINTAYLELSSLRSEDTAVYYCARKIWVGHTTFDRWGQGTLVTVSS VL: AIQMTQSPSSLSASVGDRVTITCRASQSISGYLNWYQQKPGKAPNLLIYAASNLQSGVPSRFSGSGSGTDFTLTISSLQREDFAPYYCQQTYNIPFTFGGGTKVEIK . Reported AB conc. (lowest concentration of antibody that gave a clear signal above background): < 2.5 ng/mL

Reported AB conc. (lowest concentration of antibody that gave a clear signal above background) for 1E8 (antibody, V domains shown) VH: QVQLVESGGGLVKPGGSLRLSCAASGFTFSDHYMSWIRQAPGKGLEWVSYISTSGSTIYYADSVKGRFTISRDNAKNSLYLQMNSLRAEDTAVYYCASDYYDNSGWNYWGQGTLVTVSS VL: DVVMTQSPLSLPVTLGQPASISCRSSQSLVYSDGNTYLNWFQQRPGQSPRRLIYKVSDRDSGVPDRFSGSGSGTDFTLRISRVEAEDVGVYYCMQGSHWPRTFGQGTKVEIK was < 2.5 ng/mL
